Target: CIT (human) (UniProt O14578)
Sequence (O14578 whole entry, looked up): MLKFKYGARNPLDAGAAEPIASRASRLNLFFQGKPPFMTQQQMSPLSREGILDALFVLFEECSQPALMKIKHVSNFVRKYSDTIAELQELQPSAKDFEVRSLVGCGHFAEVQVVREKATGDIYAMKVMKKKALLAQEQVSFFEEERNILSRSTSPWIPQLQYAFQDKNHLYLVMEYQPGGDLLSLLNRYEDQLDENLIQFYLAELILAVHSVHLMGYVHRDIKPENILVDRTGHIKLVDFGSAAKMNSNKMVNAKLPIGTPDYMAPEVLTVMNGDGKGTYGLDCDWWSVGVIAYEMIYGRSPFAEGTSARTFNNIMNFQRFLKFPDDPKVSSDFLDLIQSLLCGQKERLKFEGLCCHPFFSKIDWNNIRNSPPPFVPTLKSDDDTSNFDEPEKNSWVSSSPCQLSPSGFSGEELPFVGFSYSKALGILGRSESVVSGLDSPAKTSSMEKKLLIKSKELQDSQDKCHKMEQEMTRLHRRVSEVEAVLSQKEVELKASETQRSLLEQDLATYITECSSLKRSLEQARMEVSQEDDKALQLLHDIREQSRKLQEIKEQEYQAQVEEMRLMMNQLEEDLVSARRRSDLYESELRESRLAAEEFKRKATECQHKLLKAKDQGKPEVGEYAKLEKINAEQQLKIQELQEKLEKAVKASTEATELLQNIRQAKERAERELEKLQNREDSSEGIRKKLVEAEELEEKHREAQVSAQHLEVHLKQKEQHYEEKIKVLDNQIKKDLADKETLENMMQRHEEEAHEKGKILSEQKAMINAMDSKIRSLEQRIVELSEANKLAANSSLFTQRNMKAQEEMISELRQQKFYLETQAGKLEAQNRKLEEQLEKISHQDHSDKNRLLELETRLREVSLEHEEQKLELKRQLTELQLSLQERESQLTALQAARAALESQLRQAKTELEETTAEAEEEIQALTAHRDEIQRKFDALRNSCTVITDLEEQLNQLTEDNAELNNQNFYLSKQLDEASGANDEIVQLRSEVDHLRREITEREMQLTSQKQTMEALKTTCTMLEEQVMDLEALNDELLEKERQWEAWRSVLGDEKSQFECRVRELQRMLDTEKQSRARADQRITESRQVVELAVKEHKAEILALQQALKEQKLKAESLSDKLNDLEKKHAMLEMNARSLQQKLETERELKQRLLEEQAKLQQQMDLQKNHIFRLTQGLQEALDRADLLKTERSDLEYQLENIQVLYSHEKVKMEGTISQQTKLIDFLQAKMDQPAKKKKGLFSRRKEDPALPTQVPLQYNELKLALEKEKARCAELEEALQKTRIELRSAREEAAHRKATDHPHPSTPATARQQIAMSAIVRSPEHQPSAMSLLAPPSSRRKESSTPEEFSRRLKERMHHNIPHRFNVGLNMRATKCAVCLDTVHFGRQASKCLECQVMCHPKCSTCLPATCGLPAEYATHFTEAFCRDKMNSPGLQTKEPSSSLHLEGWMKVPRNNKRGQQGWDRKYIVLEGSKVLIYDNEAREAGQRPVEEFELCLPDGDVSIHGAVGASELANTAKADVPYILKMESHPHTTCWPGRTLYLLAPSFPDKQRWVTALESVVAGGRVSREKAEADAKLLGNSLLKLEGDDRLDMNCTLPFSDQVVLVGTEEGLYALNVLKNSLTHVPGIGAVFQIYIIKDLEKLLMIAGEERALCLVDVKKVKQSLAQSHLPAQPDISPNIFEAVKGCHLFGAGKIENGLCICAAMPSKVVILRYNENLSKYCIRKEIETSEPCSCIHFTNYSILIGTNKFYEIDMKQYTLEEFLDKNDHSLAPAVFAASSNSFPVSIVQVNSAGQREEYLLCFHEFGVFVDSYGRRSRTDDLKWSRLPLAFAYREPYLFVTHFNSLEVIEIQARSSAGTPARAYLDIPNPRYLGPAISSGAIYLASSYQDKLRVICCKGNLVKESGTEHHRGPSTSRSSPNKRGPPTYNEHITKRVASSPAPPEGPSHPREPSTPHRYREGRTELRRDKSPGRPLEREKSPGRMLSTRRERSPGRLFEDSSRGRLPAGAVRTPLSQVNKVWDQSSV
Assay: KINOMEscan competition binding
Settings: compound 10.0 µM
property name: kinase still bound, per cent of control
Report the figure along with its unit, number first.

## Task Which kinase still bound, per cent of control value is on record for `O=C1NC(=O)/C(=C/c2c[nH]c(=O)c(-c3ccc(N4CCNCC4)nc3)c2)S1` ?
## Result 37%

## Task For `COc1cc(N2CCN(C)CC2)ccc1Nc1ncc2c(n1)N(C)c1ccccc1N(C)C2=O` , what is its reported kinase still bound, per cent of control?
## Result 95%

## Task Reported kinase still bound, per cent of control, compound `COc1cc(N2CCN(C)CC2)ccc1Nc1ncc2c(n1)Nc1ccccc1NC2=O` : ____
## Result 47%

## Task kinase still bound, per cent of control lookup needed for `O=C1NC(=S)S/C1=C\c1ccc(-c2cncc3ccccc23)o1` , thanks.
## Result 28%

## Task State the recorded kinase still bound, per cent of control for this entry: `O=C1NC(=O)/C(=C/c2ccc(-c3ccc(F)cc3O)o2)S1`
## Result 0.2%

## Task kinase still bound, per cent of control lookup needed for `CN1CCN(c2ccc(C(=O)Nc3ncc4c(n3)N(C)c3ccccc3C(=O)N4C)cc2)CC1` , thanks.
## Result 100%

## Task Quick one: kinase still bound, per cent of control for `N=C1NC(=O)/C(=C/c2ccc(-c3cncc4ccccc34)o2)S1` ?
## Result 19%

## Task GET /values?readout=kinase still bound, per cent of control&item= `N=C1NC(=O)/C(=C/c2ccc(-c3ccc(F)cc3O)o2)S1`
## Result 33%

## Task May I ask what kinase still bound, per cent of control has been recorded for `CS(=O)(=O)Nc1ccc(-c2cncc(/C=C3\SC(=N)NC3=O)c2)cc1` ?
## Result 0.8%

## Task For the compound `COc1cc(N2CCN(C)CC2)ccc1Nc1ncc2c(n1)N(C)c1sccc1C(=O)N2C` , what kinase still bound, per cent of control is on record?
## Result 85%

* * *

Can you tell me kinase still bound, per cent of control for the items I'm about to list?
Target: RIPK2 (human)
Assay: KINOMEscan competition binding
Conditions: compound 10.0 µM
Kindly provide the numeric value in % only, without the unit symbol.

## Task Requested field: kinase still bound, per cent of control. Item: `CN1C(=O)c2ccccc2N(C)c2nc(NS(=O)(=O)c3ccc(N)cc3)ncc21`
## Result 100

## Task Which kinase still bound, per cent of control value is on record for `CS(=O)(=O)Nc1ccc(-c2ncc(/C=C3\SC(=N)NC3=O)s2)cc1` ?
## Result 6.6

## Task # kinase still bound, per cent of control lookup, item `CN1CCN(c2ccc(C(=O)Nc3ncc4c(n3)N(C)c3ccccc3C(=O)N4C)cc2)CC1`
## Result 100

## Task Item under review: `CN1C(=O)c2ccccc2N(C)c2nc(Nc3ccc(N4CCC(O)CC4)cc3)ncc21` . Reported kinase still bound, per cent of control?
## Result 66

## Task Param item = `COc1cc(N2CCN(C)CC2)ccc1Nc1ncc2c(n1)N(C)c1ccccc1N(C)C2=O` ; retrieve measured kinase still bound, per cent of control.
## Result 100

## Task Which kinase still bound, per cent of control value is on record for `COc1cc(N2CCN(C)CC2)ccc1Nc1ncc2c(n1)N(C)c1ccccc1C(=O)N2` ?
## Result 24

## Task Quick one: kinase still bound, per cent of control for `O=C1NC(=O)/C(=C/c2c[nH]c(=O)c(-c3ccc(N4CCNCC4)nc3)c2)S1` ?
## Result 9.9

## Task // query kinase still bound, per cent of control value for entry `O=C1NC(=O)/C(=C/c2ccc(-c3ccc(F)cc3O)o2)S1`
## Result 32

## Task Requested read-out: kinase still bound, per cent of control. Entry: `COc1cc(N2CCN(C)CC2)ccc1Nc1ncc2c(n1)N(C)c1sccc1C(=O)N2C`
## Result 92

## Task Query: kinase still bound, per cent of control; subject: `CS(=O)(=O)Nc1ccc(-c2cncc(/C=C3\SC(=N)NC3=O)c2)cc1`
## Result 1.4
